- Tested on: spleen T cells
- Experimental details: T cell proliferation inhibition (CFSE, FACS), CD3/CD28-activated spleen T cells
- Format: cell-based, C57BL/6 mice
- Setup conditions: Mus musculus, T-cell, 72 h; Table 2; 10 μM; 3 days; relative to CD3/CD28+DMSO; read-out: Proliferation inhibition rate (%)
- Procedure: To investigate whether the compounds obtained in the Preparation Example have an inhibitory effect on T cell proliferation, the T cell proliferation was determined ex vivo using the fluorescent dye carboxyfluorescein diacetate succinimidyl ester (CFSE), which binds to intracellular molecules by covalent bonds. […] In the FACS graph of FIG. 1, the y-axis represents the quantity (number) of cells, while the x-axis represents the fluorescence level of the cells. […]
// reported inhibition at 10 µM for each item listed
Metric name: inhibition at 10 µM

compound="CCCCCCCCCCCCNC(=O)c1ccncc1N [Compound 68]" reported=57%
compound="CCCCCCCCCCCCNC(=O)c1c(Cl)cccc1Cl [Compound 39]" reported=7%
compound="CCCCCCCCCCCCNS(=O)(=O)c1ccccc1[N+](=O)[O-] [Compound 58]" reported=39%
compound="CCCCCCCCCCCCNC(=O)c1cccnc1Cl [Compound 13]" reported=10%
compound="CCCCCCCCCCCCNC(=O)c1cccnn1 [Compound 31]" reported=15%
compound="CCCCCCCCCCCCNC(=O)c1ncccn1 [Compound 79]" reported=46%
compound="CCCCCCCCCCCCNC(=O)c1ccnc(C)c1 [Compound 15]" reported=10%
compound="CCCCCCCCCCCCNC(=O)c1ccccc1-n1cccc1 [Compound 84]" reported=89%
compound="C=Cc1ccccc1C(=O)NCCCCCCCCCCCC [Compound 57]" reported=93%
compound="CC(C)=CCC/C(C)=C/CNC(=O)c1cccnc1N [Compound 75]" reported=95%
compound="CCCCCCCCCCCCNC(=O)c1ccccc1Oc1ccccc1 [Compound 61]" reported=16%

###

- System: spleen T cells
- Experimental details: T cell proliferation inhibition (CFSE, FACS), CD3/CD28-activated spleen T cells
- Type: cell-based, C57BL/6 mice
- Setup conditions: Mus musculus, T-cell, 72 h; Table 2; 10 μM; 3 days; relative to CD3/CD28+DMSO; read-out: Proliferation inhibition rate (%)
- Description: To investigate whether the compounds obtained in the Preparation Example have an inhibitory effect on T cell proliferation, the T cell proliferation was determined ex vivo using the fluorescent dye carboxyfluorescein diacetate succinimidyl ester (CFSE), which binds to intracellular molecules by covalent bonds. […] In the FACS graph of FIG. 1, the y-axis represents the quantity (number) of cells, while the x-axis represents the fluorescence level of the cells. […]
Reported inhibition at 10 µM by item:
Metric name: inhibition at 10 µM (%)

compound="CCCCCCCCCCCCNC(=O)c1cccnc1 [Compound 19]" metric_name="inhibition at 10 µM" scale_unit=% reported=19
compound="CCCCCCCCCCCCNC(=O)c1ccccc1NC [Compound 65]" metric_name="inhibition at 10 µM" scale_unit=% reported=39
compound="CCCCCCCCCCCCNC(=O)c1cccnc1OC [Compound 32]" metric_name="inhibition at 10 µM" scale_unit=% reported=12
compound="CCCCCCCCCCCCNC(=O)c1ccc(F)c(F)c1F [Compound 55]" metric_name="inhibition at 10 µM" scale_unit=% reported=52
compound="CCCCCCCCCCCCNC(=O)c1cccnc1O [Compound 70]" metric_name="inhibition at 10 µM" scale_unit=% reported=29
compound="CCCCCCCCCCCCNC(=O)Cc1ccccc1 [Compound 25]" metric_name="inhibition at 10 µM" scale_unit=% reported=20
